meta.source: paper PMC4721142

# System: MIA rat model of OA
# assay_procedure: MIA trial 3 histopathology (same doses as dRS test)
# Assay type: in vivo
# details: group mean; i.a. weekly
Lab note - cut at 50% for Bone resorption percent, LFC: yes if strictly below, no if not.

A selection of reference data follows.
CC1(C)O[C@@H]2C[C@H]3[C@@H]4C[C@H](F)C5=CC(=O)C=C[C@]5(C)[C@@]4(F)[C@@H](O)C[C@]3(C)[C@]2(C(=O)CO)O1 [Fluocinolone, Fluocinolone Acetonide] : no
Cc1cnc(NC(=O)C2=C(O)c3ccccc3S(=O)(=O)N2C)s1 [Meloxicam] : yes
CC(C)(C)CC(=O)OCC(=O)[C@@]12OC(C)(C)O[C@@H]1C[C@H]1[C@@H]3CCC4=CC(=O)C=C[C@]4(C)[C@@]3(F)[C@@H](O)C[C@@]12C [Triamcinolone hexacetonide] : yes

Threshold test, Bone resorption percent, LFC < 50%: COc1ccc(C=CC(=O)Nc2ccccc2C(=O)O)cc1OC [Tranilast]
no

Another molecule to check: C=CC[C@@H]1/C=C(\C)C[C@H](C)C[C@H](OC)[C@H]2O[C@@](O)(C(=O)C(=O)N3CCCC[C@H]3C(=O)O[C@H](/C(C)=C/[C@@H]3CC[C@@H](O)[C@H](OC)C3)[C@H](C)[C@@H](O)CC1=O)[C@H](C)C[C@@H]2OC [Tacrolimus]
no
